Tested on: HCT116
Experiment: Cytotoxicity in HCT116
Type: cell-based
Conditions: Table 2; read-out: IC50 in cancer cell lines, HCT116
observedProperty: IC50 (µM)
API: value field is a number in µM; no unit string.

Prompt: // lookup IC50 for O=c1[nH]c(=S)[nH]c(N=Cc2ccccc2)c1N=Cc1ccccc1 [SCR7, reference compound]
Completion: 302

* * *

Tested on: Supt1
Experiment: Cytotoxicity in Supt1
Type: cell-based
Conditions: Table 2; read-out: IC50 in cancer cell lines, Supt1
observedProperty: IC50 (µM)
API: value field is a number in µM; no unit string.

Prompt: // lookup IC50 for O=c1[nH]c(=S)[nH]c(N=Cc2ccccc2)c1N=Cc1ccccc1 [SCR7, reference compound]
Completion: 109

* * *

System: HeLa
Assay: Cytotoxicity (viable cells) in HeLa
Type: cell-based
Settings: Homo sapiens, HeLa, Table 2; read-out: IC50 in cancer cell lines, HeLa
observedProperty: pIC50
In textbook form, pIC50 equals minus log to base ten of the concentration in mol/L.

{"columns": ["sampleSmiles", "target", "observedProperty", "result"],
 "data": [
  ["Nc1nc(S)nc(O)c1/N=C/c1sc(Cl)nc1Cl", "HeLa", "pIC50", 5.70]
]}

Could you now consider this next compound?
Prompt: Query for HeLa: what pIC50 does the record show for `Nc1nc(S)nc(O)c1/N=C/c1ccc([N+](=O)[O-])s1` ?
Completion: 5.30
